assay: in vitro dissolution test, receptor solution MFDS (Example 17, Drug 2 dispersions); format: physicochemical; conditions: TCmax 400 or 100 μg/mL, read-out: Cmax, 90
parameter_measured: Cmax

Reported Cmax for CCOC(=O)N1c2ccc(C(F)(F)F)cc2[C@@H](N(Cc2cc(C(F)(F)F)cc(C(F)(F)F)c2)C(=O)OC)C[C@H]1CC [Control 3] : what is it?
< 1000 ng/mL

----------
assay: in vitro dissolution test, microcentrifuge method, MFDS (Example 5, Drug 1 dispersions); format: physicochemical; conditions: model-fasted duodenal solution (MFDS), pH 6.5, maximum concentration of Drug 1 in solution during the 90-minute test, TCmax 100 or 500 μg/mL
parameter_measured: Cmax at 100 μg/mL (ng/mL)
Response body: numeric value in ng/mL, unit text excluded.

Reported Cmax at 100 μg/mL for COC(=O)N(Cc1cc(C(F)(F)F)cc(C(F)(F)F)c1)[C@@H]1C[C@H](C2CC2)N(C(=O)OC(C)C)c2ccc(C(F)(F)F)cc21 [Control 1] : what is it?
900
